B1: Protein S100-G, P02633 (parent)
chain: MSAKKSPEELKGIFEKYAAKEGDPNQLSKEELKLLLQTEFPSLLKGPSTLDELFEELDKNGDGEVSFEEFQVLVKKISQ

Variants of: B1
experimental-conditions: Bos taurus; pH 7; 25 °C; Urea; CD; PIPES-KOH 20 mM; reversible: yes; structure 1IGV; whole UniProt chain shown

{"mutation-key": "D23N E30Q", "unfolding free energy / kcal/mol": 0.81}
{"mutation-key": "E21Q D23N E30Q", "unfolding free energy / kcal/mol": 1.22}
{"mutation-key": "E21Q D23N", "unfolding free energy / kcal/mol": 1.48}
{"mutation-key": "E21Q", "unfolding free energy / kcal/mol": 0.67}

Taken from FireProtDB (doi:10.1002/prot.340080106).
